molecular target: amyloid β protein (Homo sapiens, UniProt P05067); construct: the amyloid β protein (purchased from Peptide Laboratory) was dissolved in a potassium phosphate buffer (pH7.4); purchased Peptide Laboratory; experiment: β structure recognition of amyloid β protein (thioflavin T fluorescence); type: binding; settings: test compound 1 μM; thioflavin T 3 μM; average of duplicated experiments; read-out: β Structure recognition (%)
Sequence (P05067 672-711 limits assumed): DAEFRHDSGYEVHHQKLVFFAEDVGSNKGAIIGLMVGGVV
parameter: β structure recognition (%) at 1 µM
Only the number, expressed in %, is required.

response.value for CCN(CC)c1ccc(/C=N/c2ccccc2)cc1 (field: β structure recognition (%) at 1 µM) = 33.9

The compound listed as CC[n+]1ccccc1/C=C/c1ccc(N(C)C)cc1 shows β structure recognition (%) at 1 µM equal to 46

Briefly, β structure recognition (%) at 1 µM measured for O=C(O)c1cc(/C=C/c2ccc(/C=C/c3ccc(O)c(C(=O)O)c3)cc2)ccc1O [Compound X34, reference compound] : 73.9

Recorded result, CCN(CC)c1ccc(/C=C/c2cc[n+](C)cc2)cc1 , β structure recognition (%) at 1 µM: 71.2

---

molecular target: amyloid β protein (Homo sapiens); construct: the amyloid β protein (purchased from Peptide Laboratory) was dissolved in a potassium phosphate buffer (pH7.4); purchased Peptide Laboratory; assay: β structure recognition of amyloid β protein (thioflavin T fluorescence); assay type: binding; conditions: test compound 1 μM; thioflavin T 3 μM; average of duplicated experiments; read-out: β Structure recognition (%)
Field: β structure recognition (%) at 1 µM. Provide a value for each of the molecules that follow.
Field: numeric (%). Do not append units.

# lookup: Nc1c(SSc2ccc3ccccc3c2N)ccc2ccccc12 on amyloid β protein (Homo sapiens), β structure recognition (%) at 1 µM = 43.3

Item CCN(CC)c1ccc(/N=N/c2ccc(Br)cn2)c(O)c1 ; assay system amyloid β protein (Homo sapiens); β structure recognition (%) at 1 µM reported as 87.2

Bench note, amyloid β protein (Homo sapiens): CN(C)c1ccc(/N=C2\C=CC(=O)c3ccccc32)cc1 , β structure recognition (%) at 1 µM reads 96.9

// assay amyloid β protein (Homo sapiens), entry CN(C)c1ccc(/N=C/c2ccccc2)cc1 , β structure recognition (%) at 1 µM value = 46.5

The value of β structure recognition (%) at 1 µM recorded for CCN(CC)c1ccc(/N=N/c2ccccc2)cc1 when tested on amyloid β protein (Homo sapiens) reads 65.4

Summary line: CC[n+]1c(/C=C/c2ccc(N(C)C)cc2)ccc2ccccc21 , amyloid β protein (Homo sapiens), reported β structure recognition (%) at 1 µM = 91.9

Value (β structure recognition (%) at 1 µM, amyloid β protein (Homo sapiens)) for record CN(C)c1ccc(/C=N/c2cc3c(ccc4ccccc43)cn2)cc1 = 39.3

Kindly note: amyloid β protein (Homo sapiens), CN(C)c1ccc(/N=N/c2ccc(S(=O)(=O)Cl)cc2)cc1 , β structure recognition (%) at 1 µM value reported: 62.7

Per the reported amyloid β protein (Homo sapiens) data, CN(C)c1ccc(/N=N/c2ccc(S(=O)(=O)O)cc2)cc1 has β structure recognition (%) at 1 µM of 62.2

Kindly note: amyloid β protein (Homo sapiens), CN(C)c1ccc(/C=C/c2ccc3ccccc3n2)cc1 , β structure recognition (%) at 1 µM value reported: 25.4

Param item: CN(C)c1ccc(/N=N/c2ccc(NC(=O)CI)cc2)cc1 ; param system: amyloid β protein (Homo sapiens); output β structure recognition (%) at 1 µM: 52.4

Record CN(C)c1ccc(/C=N/c2ccc(O)cc2)cc1 ; system amyloid β protein (Homo sapiens); β structure recognition (%) at 1 µM = 7.6

Considering CN(C)c1ccc(/C=C/c2ccc3ccccc3[n+]2C)cc1 , its β structure recognition (%) at 1 µM with amyloid β protein (Homo sapiens) was recorded as 86.9

Considering Nc1c(/N=N/c2ccc(-c3ccc(/N=N/c4cc(S(=O)(=O)O)c5ccccc5c4N)cc3)cc2)cc(S(=O)(=O)O)c2ccccc12 [Congo red, reference compound] , its β structure recognition (%) at 1 µM with amyloid β protein (Homo sapiens) was recorded as 89.3

Item CCN(CC)c1ccc(/N=N/c2ccc(N(C)C)cc2)c(NC(N)=O)c1 was tested on amyloid β protein (Homo sapiens); the reported β structure recognition (%) at 1 µM is 85

The molecule COc1cc(N=Nc2ccc(N)cc2)c(C)cc1N on amyloid β protein (Homo sapiens): β structure recognition (%) at 1 µM was 38.4

amyloid β protein (Homo sapiens) assay, molecule CCOc1ccc(/N=C/c2ccc(N(C)C)cc2)cc1 , recorded β structure recognition (%) at 1 µM = 23.1

Field β structure recognition (%) at 1 µM (amyloid β protein (Homo sapiens)), entry CN(C)c1ccc(/C=C/c2ccccn2)cc1 : 53
